Where do these numbers come from? They come from the supplement of paper PMC10065799.

# Study system: SHP2-C SH2;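 further: peptide library displayed on the E. coli surface as eCPX fusions, selected cells deep-sequenced, score is each peptide's frequency after selection divided by its frequency in the input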
# Measurement notes: SH2 binding enrichment of the phosphorylated peptide, bacterial display (enrichment ratio); higher = better substrate or ligand; peptides without Tyr show the background
Assay metric: SH2 binding enrichment

{"Sequence input": "QLCVSYPGGYT [PROS1_Y259_N258S]", "Study system": "SHP2-C SH2", "Assay metric": "SH2 binding enrichment", "Value measured": 0.784}
{"Sequence input": "KELAPYDENCF [RPS19_Y48_W52C]", "Study system": "SHP2-C SH2", "Assay metric": "SH2 binding enrichment", "Value measured": 0.803}
{"Sequence input": "NRLNDYIFSFD [RARS1_Y516]", "Study system": "SHP2-C SH2", "Assay metric": "SH2 binding enrichment", "Value measured": 0.778}
